Origin of measurements: paper PMC9161616

assay: Plasma pharmacokinetics of FGF401 (noncompartmental) and food effect; assay type: in vivo, human; conditions: human, plasma, oral, 150 mg, Cycle 1 day 8; 150 mg Fasted; n=6; geometric mean (CV%); read-out: AUC0-24h
READOUT TYPE: AUC(0-t) (ng·h/mL)
The reply should be a number in ng·h/mL, with the unit left off.

For reference, reported AUC(0-t) for COCCNc1cc(NC(=O)N2CCCc3cc(CN4CCN(C)CC4=O)c(C=O)nc32)ncc1C#N [FGF401, roblitinib] stands at 7510

---

assay: Plasma pharmacokinetics of FGF401 (noncompartmental) and food effect; assay type: in vivo, human; conditions: human, plasma, oral, 150 mg, Cycle 1 day 8; 150 mg Fasted; n=6; geometric mean (CV%); read-out: AUClast
READOUT TYPE: AUC(0-t) (ng·h/mL)
API: value field is a number in ng·h/mL; no unit string.

The molecule listed as COCCNc1cc(NC(=O)N2CCCc3cc(CN4CCN(C)CC4=O)c(C=O)nc32)ncc1C#N shows AUC(0-t) equal to 7550

---

test: Plasma pharmacokinetics of FGF401 (noncompartmental) and food effect; assay type: in vivo, human; settings: human, plasma, oral, 80 mg, Cycle 1 day 8; 80 mg Fed; n=4; geometric mean (CV%); read-out: T1/2 (converted)
READOUT TYPE: half-life (h)
Give just the numeric value; h need not be written.

Value of half-life reported for the compound COCCNc1cc(NC(=O)N2CCCc3cc(CN4CCN(C)CC4=O)c(C=O)nc32)ncc1C#N [FGF401, roblitinib] is 5.58

---

assay: Plasma pharmacokinetics of FGF401 (noncompartmental) and food effect; type: in vivo, human; conditions: human, plasma, oral; 120 mg fasted, C1D8, geometric mean, CV 38.7%; read-out: AUCtau at steady state
READOUT TYPE: AUC (ng·h/mL)
Give a bare numeral; the unit ng·h/mL is implied.

Sample COCCNc1cc(NC(=O)N2CCCc3cc(CN4CCN(C)CC4=O)c(C=O)nc32)ncc1C#N ; AUC observed: 6970

---

experiment: Plasma pharmacokinetics of FGF401 (noncompartmental) and food effect; assay type: in vivo, human; settings: human, plasma, oral, 80 mg, Cycle 1 day 8; 80 mg Fed; n=4; geometric mean (CV%)
READOUT TYPE: Cmax (ng/mL)
Numeric only. Scale: ng/mL

Short answer for COCCNc1cc(NC(=O)N2CCCc3cc(CN4CCN(C)CC4=O)c(C=O)nc32)ncc1C#N : Cmax was 704

---

experiment: Plasma pharmacokinetics of FGF401 (noncompartmental) and food effect; format: in vivo, human; details: human, plasma, oral, 120 mg, Cycle 1 day 8; 120 mg Fed; n=18; median [min, max]; read-out: Tmax
READOUT TYPE: Tmax (h)
Just the number please, in h, no unit attached.

The molecule listed as COCCNc1cc(NC(=O)N2CCCc3cc(CN4CCN(C)CC4=O)c(C=O)nc32)ncc1C#N shows Tmax equal to 3.01

---

experiment: Plasma pharmacokinetics of FGF401 (noncompartmental) and food effect; type: in vivo, human; conditions: human, plasma, oral, 50 mg, Cycle 1 day 8; 50 mg Fasted; n=6; geometric mean (CV%); read-out: T1/2 (converted)
READOUT TYPE: half-life (h)
Entry rule: numbers only, all in h.

Form field half-life, entry COCCNc1cc(NC(=O)N2CCCc3cc(CN4CCN(C)CC4=O)c(C=O)nc32)ncc1C#N : 6.57
